# STUDY SYSTEM: hCA II (Homo sapiens)
# PROCEDURE DETAILS: CA activation, stopped-flow CO2 hydrase assay
# Type: biochemical
# TEST SETTINGS: KA ratio for the indicated enzyme isoforms, value in square brackets
# Experimental: A stopped-flow method[38] has been used for assaying the CA catalysed CO2 hydration activity with Phenol red as indicator, working at the absorbance maximum of 557 nm, following the initial rates of the CA-catalysed CO2 hydration reaction for 10–100 s. For each activator, at least six traces of the initial 5–10% of the reaction have been used for determining the initial velocity. The uncatalyzed rates were determined in the same manner and subtracted from the total observed rates. […]
PARAMETER: KA ratio [hCA II/hCA VII]

INPUT: Any idea what KA ratio [hCA II/hCA VII] was measured for `CN(C)CCCNC(=O)C(=O)c1cn(Cc2ccccc2)c2ccc(OCCO)cc12` ?
OUTPUT: > 9.3

INPUT: Any idea what KA ratio [hCA II/hCA VII] was measured for `CCOC(=O)c1cn(Cc2ccccc2)c2ccc(OCCN(C)C)cc12` ?
OUTPUT: > 12.2

INPUT: Any idea what KA ratio [hCA II/hCA VII] was measured for `CN(C)CCCOc1ccc2c(c1)c(C(=O)NCCO)cn2Cc1ccccc1` ?
OUTPUT: > 9.6

INPUT: Any idea what KA ratio [hCA II/hCA VII] was measured for `CCOC(=O)c1cn(Cc2ccccc2)c2ccc(OCCCN(C)C)cc12` ?
OUTPUT: > 13.9

INPUT: Any idea what KA ratio [hCA II/hCA VII] was measured for `CN(C)CCCOc1ccc2c(c1)c(C(=O)C(=O)NCCCO)cn2Cc1ccccc1` ?
OUTPUT: > 9.4

INPUT: Any idea what KA ratio [hCA II/hCA VII] was measured for `CCN(CC)CCNC(=O)C(=O)c1cn(Cc2ccccc2)c2ccc(OCCO)cc12` ?
OUTPUT: > 10.0

INPUT: Any idea what KA ratio [hCA II/hCA VII] was measured for `CCN(CC)CCOc1ccc2c(c1)c(C(=O)C(=O)NCCO)cn2Cc1ccccc1` ?
OUTPUT: > 11.0

INPUT: Any idea what KA ratio [hCA II/hCA VII] was measured for `CCN(CC)CCOc1ccc2c(c1)c(C(=O)NCc1ccccc1)cn2Cc1ccccc1` ?
OUTPUT: > 13.3

INPUT: Any idea what KA ratio [hCA II/hCA VII] was measured for `CN(C)CCOc1ccc2c(c1)c(C(=O)NCCO)cn2Cc1ccccc1` ?
OUTPUT: > 9.3

----------
Listed compounds paired with reported KA hCA VA
# STUDY SYSTEM: UniProt:P35218
# PROCEDURE DETAILS: CA activation, stopped-flow CO2 hydrase assay
# Type: biochemical
# TEST SETTINGS: activation constant; mean from 3 assays, errors ±5–10%
Entry rule: numbers only, all in µM.

Record excerpt, results attached:
INPUT: Any idea what KA hCA VA was measured for `CN(C)CCOc1ccc2c(c1)c(C(=O)NCCO)cn2Cc1ccccc1` ?
OUTPUT: 26.8

INPUT: Any idea what KA hCA VA was measured for `CCN(CC)CCOc1ccc2c(c1)c(C(=O)C(=O)NCCO)cn2Cc1ccccc1` ?
OUTPUT: 34.4

INPUT: Any idea what KA hCA VA was measured for `CCN(CC)CCNC(=O)C(=O)c1cn(Cc2ccccc2)c2ccc(OCCO)cc12` ?
OUTPUT: 28.7

INPUT: Any idea what KA hCA VA was measured for `CN(C)CCCOc1ccc2c(c1)c(C(=O)NCCO)cn2Cc1ccccc1` ?
OUTPUT: 28.0

INPUT: Any idea what KA hCA VA was measured for `CCN(CC)CCOc1ccc2c(c1)c(C(=O)NCc1ccccc1)cn2Cc1ccccc1` ?
OUTPUT: 24.4

INPUT: Any idea what KA hCA VA was measured for `CN(C)CCCNC(=O)C(=O)c1cn(Cc2ccccc2)c2ccc(OCCO)cc12` ?
OUTPUT: 25.0

INPUT: Any idea what KA hCA VA was measured for `CCOC(=O)c1cn(Cc2ccccc2)c2ccc(OCCCN(C)C)cc12` ?
OUTPUT: 59.8

INPUT: Any idea what KA hCA VA was measured for `CN(C)CCCOc1ccc2c(c1)c(C(=O)C(=O)NCCCO)cn2Cc1ccccc1` ?
OUTPUT: 50.9

Continuing:
INPUT: Any idea what KA hCA VA was measured for `CCOC(=O)c1cn(Cc2ccccc2)c2ccc(OCCN(C)C)cc12` ?
OUTPUT: 29.1

INPUT: Any idea what KA hCA VA was measured for NCCc1c[nH]cn1 [Histamine, reference compound] ?
OUTPUT: 0.010

----------
Listed molecules paired with reported melting point

Record excerpt, results attached:
INPUT: Any idea what melting point was measured for `CCOC(=O)c1cn(Cc2ccccc2)c2ccc(OCCN(C)C)cc12` ?
OUTPUT: 69 to 71 °C

INPUT: Any idea what melting point was measured for `CCN(CC)CCOc1ccc2c(c1)c(C(=O)C(=O)NCCO)cn2Cc1ccccc1` ?
OUTPUT: 116 to 118 °C

INPUT: Any idea what melting point was measured for `CCN(CC)CCOc1ccc2c(c1)c(C(=O)NCc1ccccc1)cn2Cc1ccccc1` ?
OUTPUT: 57 to 59 °C

INPUT: Any idea what melting point was measured for `CN(C)CCCOc1ccc2c(c1)c(C(=O)C(=O)NCCCO)cn2Cc1ccccc1` ?
OUTPUT: 111 to 113 °C

// switching to the query molecule
INPUT: Any idea what melting point was measured for `CCOC(=O)c1cn(Cc2ccccc2)c2ccc(OCCCN(C)C)cc12` ?
OUTPUT: 58 to 60 °C

----------
# STUDY SYSTEM: hCA VA (Homo sapiens, UniProt P35218)
# Sequence (P35218 39-305): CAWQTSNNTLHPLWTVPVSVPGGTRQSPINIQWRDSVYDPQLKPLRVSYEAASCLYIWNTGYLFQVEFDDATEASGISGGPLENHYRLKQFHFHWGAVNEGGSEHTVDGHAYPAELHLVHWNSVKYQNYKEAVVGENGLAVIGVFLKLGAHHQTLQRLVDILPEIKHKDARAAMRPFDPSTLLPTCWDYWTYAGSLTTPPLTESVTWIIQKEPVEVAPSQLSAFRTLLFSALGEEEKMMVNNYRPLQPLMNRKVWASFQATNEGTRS
# PROCEDURE DETAILS: CA activation, stopped-flow CO2 hydrase assay
# Assay type: biochemical
# TEST SETTINGS: KA ratio for the indicated enzyme isoforms, value in square brackets
Class yes: KA ratio [hCA VA/hCA VII] at least 3. Class no: KA ratio [hCA VA/hCA VII] below 3.

INPUT: # bool: KA ratio [hCA VA/hCA VII] of `CN(C)CCCOc1ccc2c(c1)c(C(=O)NCCO)cn2Cc1ccccc1` >= 3
OUTPUT: no

INPUT: # bool: KA ratio [hCA VA/hCA VII] of `CN(C)CCOc1ccc2c(c1)c(C(=O)NCCO)cn2Cc1ccccc1` >= 3
OUTPUT: no

INPUT: # bool: KA ratio [hCA VA/hCA VII] of `CN(C)CCCOc1ccc2c(c1)c(C(=O)C(=O)NCCCO)cn2Cc1ccccc1` >= 3
OUTPUT: yes

INPUT: # bool: KA ratio [hCA VA/hCA VII] of `CCN(CC)CCOc1ccc2c(c1)c(C(=O)NCc1ccccc1)cn2Cc1ccccc1` >= 3
OUTPUT: yes

Lab note: next compound to report on.
INPUT: # bool: KA ratio [hCA VA/hCA VII] of `CCN(CC)CCOc1ccc2c(c1)c(C(=O)C(=O)NCCO)cn2Cc1ccccc1` >= 3
OUTPUT: yes

----------
Listed compounds paired with reported KA hCA I
# STUDY SYSTEM: hCA I (Homo sapiens, UniProt P00915)
# Sequence (P00915 whole entry): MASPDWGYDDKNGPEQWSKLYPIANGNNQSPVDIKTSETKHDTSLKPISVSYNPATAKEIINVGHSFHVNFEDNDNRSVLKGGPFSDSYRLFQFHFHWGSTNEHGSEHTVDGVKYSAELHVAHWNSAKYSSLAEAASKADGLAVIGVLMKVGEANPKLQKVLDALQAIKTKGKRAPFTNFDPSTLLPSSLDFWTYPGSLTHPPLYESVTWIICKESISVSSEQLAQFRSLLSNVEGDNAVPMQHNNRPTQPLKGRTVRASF
# PROCEDURE DETAILS: CA activation, stopped-flow CO2 hydrase assay
# Assay type: biochemical
# TEST SETTINGS: activation constant; mean from 3 assays, errors ±5–10%

Record excerpt, results attached:
INPUT: Any idea what KA hCA I was measured for `CN(C)CCOc1ccc2c(c1)c(C(=O)NCCO)cn2Cc1ccccc1` ?
OUTPUT: > 100 µM

INPUT: Any idea what KA hCA I was measured for `CCN(CC)CCOc1ccc2c(c1)c(C(=O)NCc1ccccc1)cn2Cc1ccccc1` ?
OUTPUT: > 100 µM

INPUT: Any idea what KA hCA I was measured for `CCN(CC)CCNC(=O)C(=O)c1cn(Cc2ccccc2)c2ccc(OCCO)cc12` ?
OUTPUT: 88.9 µM

INPUT: Any idea what KA hCA I was measured for `CCOC(=O)c1cn(Cc2ccccc2)c2ccc(OCCCN(C)C)cc12` ?
OUTPUT: 69.1 µM

INPUT: Any idea what KA hCA I was measured for `CCOC(=O)c1cn(Cc2ccccc2)c2ccc(OCCN(C)C)cc12` ?
OUTPUT: > 100 µM

INPUT: Any idea what KA hCA I was measured for `CCN(CC)CCOc1ccc2c(c1)c(C(=O)C(=O)NCCO)cn2Cc1ccccc1` ?
OUTPUT: > 100 µM

INPUT: Any idea what KA hCA I was measured for NCCc1c[nH]cn1 [Histamine, reference compound] ?
OUTPUT: 2.1 µM

INPUT: Any idea what KA hCA I was measured for `CN(C)CCCNC(=O)C(=O)c1cn(Cc2ccccc2)c2ccc(OCCO)cc12` ?
OUTPUT: > 100 µM

INPUT: Any idea what KA hCA I was measured for `CN(C)CCCOc1ccc2c(c1)c(C(=O)NCCO)cn2Cc1ccccc1` ?
OUTPUT: > 100 µM

// switching to the query compound
INPUT: Any idea what KA hCA I was measured for `CN(C)CCCOc1ccc2c(c1)c(C(=O)C(=O)NCCCO)cn2Cc1ccccc1` ?
OUTPUT: > 100 µM
